What follows is a record of pIC50 for MMP-2 (Homo sapiens, UniProt P08253).
As a rule, pIC50 stands for the negative log10 of the concentration, concentration in M.

GET /value?item= COc1ccc(S(=O)(=O)N2[C@H](C(=O)NO)C[C@@H]3CCN(C(=O)c4ccc(-c5ccccc5)cc4)C[C@@H]32)cc1 (relative stereo) &field=pIC50 returns 5.77

Reported pIC50 ( COc1ccc(S(=O)(=O)N2[C@H](C(=O)NO)C[C@@H]3CCN(C(=O)CCc4ccccc4)C[C@@H]32)cc1 (relative stereo) ) = 7.30

For this molecule ( COc1ccc(S(=O)(=O)N2CC[C@H]3C[C@@H](C(=O)NO)N(S(=O)(=O)c4ccc(OC)cc4)[C@H]3C2)cc1 (relative stereo) ), measured pIC50 is 5.80

Entry under test: COCCOC(=O)N1CC[C@H]2C[C@@H](C(=O)NO)N(S(=O)(=O)c3ccc(OC)cc3)[C@H]2C1 (relative stereo) . Its pIC50 was 6.07

Entry under test: COc1ccc(S(=O)(=O)N2[C@H](C(=O)NO)C[C@@H]3CCN(C(=O)c4ccccc4)C[C@@H]32)cc1 (relative stereo) . Its pIC50 was 5.68

The reported pIC50 of the molecule CS(=O)(=O)N1CC[C@H]2C[C@@H](C(=O)NO)N(S(=O)(=O)c3ccc(Oc4ccncc4)cc3)[C@H]2C1 (relative stereo) was 6.43

Lab note: COc1ccc(S(=O)(=O)N2[C@H](C(=O)NO)C[C@@H]3CCN(C(=O)Nc4ccccc4)C[C@@H]32)cc1 (relative stereo) gave pIC50 of 6.49
